test-system: T1, human Fibroblast Activation Protein (FAP), soluble antigen (human, UniProt Q12884 26-760, biotinylated when immobilized on streptavidin sensors)
T1 construct: also called hFAP; biotinylated FAP
T1 sequence (Q12884 26-760 limits assumed): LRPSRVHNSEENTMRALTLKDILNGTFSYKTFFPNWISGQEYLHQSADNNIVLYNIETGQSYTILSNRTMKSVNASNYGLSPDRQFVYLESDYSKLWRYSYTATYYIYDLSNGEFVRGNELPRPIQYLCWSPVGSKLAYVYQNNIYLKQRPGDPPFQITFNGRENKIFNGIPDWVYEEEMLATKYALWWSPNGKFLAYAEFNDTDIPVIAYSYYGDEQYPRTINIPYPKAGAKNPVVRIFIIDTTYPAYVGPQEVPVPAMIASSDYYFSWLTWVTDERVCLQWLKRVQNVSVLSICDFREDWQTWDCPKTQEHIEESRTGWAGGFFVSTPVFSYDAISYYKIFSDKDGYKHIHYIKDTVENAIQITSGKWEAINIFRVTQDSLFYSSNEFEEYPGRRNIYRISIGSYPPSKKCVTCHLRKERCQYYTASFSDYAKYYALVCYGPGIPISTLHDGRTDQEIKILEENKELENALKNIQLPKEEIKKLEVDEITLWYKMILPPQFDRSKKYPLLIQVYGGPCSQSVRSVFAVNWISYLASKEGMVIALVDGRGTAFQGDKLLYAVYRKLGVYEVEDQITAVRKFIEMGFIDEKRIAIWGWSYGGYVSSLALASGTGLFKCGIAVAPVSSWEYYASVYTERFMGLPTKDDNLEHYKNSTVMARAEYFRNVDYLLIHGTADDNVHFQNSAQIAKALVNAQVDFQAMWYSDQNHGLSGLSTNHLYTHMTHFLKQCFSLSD
assay-procedure: BLI per 6.1.3, human FAP;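 also: biolayer interferometry with immobilized antigen on sensors, antibody association up to 240 s then dissociation up to 420 s, reference-subtracted, global 1:1 fit with unlinked Rmax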
pKd: −log10 of the molar value.

binder	cmp	pKd
anti-FAP antibody 872-5 (antibody, V domains shown, monovalent Fab-Fc (knob-in-hole) for KD per 6.1.3; also called IgG 5; FAP5) VH: EVQLVESGGGLVQPGGSLRLSCAASGFTFRGYIMSWVRQAPGKGLEWVSWISPEGSRTGYADSVKGRFTISRDNSKNTLYLQMNSLRAEDTAVYYCARLQYGTWFDYWGQGTLVTVSS VL: DIQMTQSPSSLSASVGDRVTITCRASQSISSYLNWYQQKPGKAPKLLIYAASSLQSGVPSRFSGSGSGTDFTLTISSLQPEDFATYYCQQATLLLPTFGQGTKVEIKR	=	8.14
872-5 VH S52G/Q96L/VL T92R (antibody, V domains shown, BLI per 6.1.3) VH: EVQLVESGGGLVQPGGSLRLSCAASGFTFRGYIMSWVRQAPGKGLEWVSWIGPEGSRTGYADSVKGRFTISRDNSKNTLYLQMNSLRAEDTAVYYCARLLYGTWFDYWGQGTLVTVSS VL: DIQMTQSPSSLSASVGDRVTITCRASQSISSYLNWYQQKPGKAPKLLIYAASSLQSGVPSRFSGSGSGTDFTLTISSLQPEDFATYYCQQARLLLPTFGQGTKVEIKR	=	10.06
872-5 VH S52G/Q96L:VL A91G/T92R (antibody, V domains shown, BLI per 6.1.3) VH: EVQLVESGGGLVQPGGSLRLSCAASGFTFRGYIMSWVRQAPGKGLEWVSWIGPEGSRTGYADSVKGRFTISRDNSKNTLYLQMNSLRAEDTAVYYCARLLYGTWFDYWGQGTLVTVSS VL: DIQMTQSPSSLSASVGDRVTITCRASQSISSYLNWYQQKPGKAPKLLIYAASSLQSGVPSRFSGSGSGTDFTLTISSLQPEDFATYYCQQGRLLLPTFGQGTKVEIKR	=	9.62
872-5 VH S52G (antibody, V domains shown, BLI per 6.1.3) VH: EVQLVESGGGLVQPGGSLRLSCAASGFTFRGYIMSWVRQAPGKGLEWVSWIGPEGSRTGYADSVKGRFTISRDNSKNTLYLQMNSLRAEDTAVYYCARLQYGTWFDYWGQGTLVTVSS VL: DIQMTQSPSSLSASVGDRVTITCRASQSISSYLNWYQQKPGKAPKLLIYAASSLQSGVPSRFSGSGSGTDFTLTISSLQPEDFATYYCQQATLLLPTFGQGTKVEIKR	=	8.66
anti-FAP antibody 872-5V1 (antibody, V domains shown, KD by BLI per 6.1.3 (monovalent Fab-Fc)) VH: EVQLVESGGGLVQPGGSLRLSCAASGFTFRGYIMSWVRQAPGKGLEWVSWIGPEGSRTGYADSVKGRFTISRDNSKNTLYLQMNSLRAEDTAVYYCARLLYGTWFDYWGQGTLVTVSS VL: DIQMTQSPSSLSASVGDRVTITCRASQSISSYLNWYQQKPGKAPKLLIYAASSLQSGVPSRFSGSGSGTDFTLTISSLQPEDFATYYCQQGTLLLPTFGQGTKVEIKR	>	10.00
